STUDY TARGET: RAD51 WT (Homo sapiens, UniProt Q06609 1-339)
Sequence (Q06609 whole entry): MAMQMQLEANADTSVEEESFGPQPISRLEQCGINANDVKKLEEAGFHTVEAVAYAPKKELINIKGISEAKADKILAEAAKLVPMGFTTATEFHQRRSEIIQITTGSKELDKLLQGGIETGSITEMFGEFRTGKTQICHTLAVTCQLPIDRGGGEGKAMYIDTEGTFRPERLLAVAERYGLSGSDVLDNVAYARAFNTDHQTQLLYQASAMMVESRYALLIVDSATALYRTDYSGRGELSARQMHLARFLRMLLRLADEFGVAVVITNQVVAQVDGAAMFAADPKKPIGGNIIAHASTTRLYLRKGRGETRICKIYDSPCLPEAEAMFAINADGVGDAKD
METHOD NOTES: fluorescence quenching
Catalogue of binders with associated pKd
Lab note: report pKd as minus log10 of the concentration in molar units, number only.

{"BINDER": "oligo 9/10 dsDNA (AF546) (dsDNA) DNA 1: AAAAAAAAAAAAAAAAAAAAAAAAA DNA 2: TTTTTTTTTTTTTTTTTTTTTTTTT", "pKd": 6.15}

We next turn to a different binder, shown below.
Asked: Value lookup for pKd; key = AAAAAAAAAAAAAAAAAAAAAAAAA (ssDNA) [oligo 9 ssDNA (AF546 poly-dA)]
Given back: 6.22
